This collection of values is drawn from PubChem BioAssay.

Recorded fluorescence slope, one value per entry.
Molecular target: Muscarinic acetylcholine receptor M4 (Homo sapiens)
Experiment: M4-linked GIRK flux change, two-sided – cell-based, HEK293 M4/GIRK, thallium flux, BTC-AM, M4 allosteric agonist project, primary screen (AID 625);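 note: thallium influx through GIRK channels coupled to M4 in HEK293 cells with BTC-AM dye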
Conditions: at 10 µM, actives lie on both sides
I only need the number, thanks.

Query: I would be grateful if you could share the reported fluorescence slope for CCN(CCNC(=O)C1CCN(S(=O)(=O)CC)CC1)c1ccccc1 .
Reply: 0.00662

Query: I would be grateful if you could share the reported fluorescence slope for O=C(CSc1nnnn1Cc1ccccc1)Nc1ccc2c(c1)OCO2 .
Reply: 0.00493

Query: I would be grateful if you could share the reported fluorescence slope for CC1(C)Cc2noc(N)c2C(C)(C)N1OC(=O)c1cccs1 .
Reply: 0.00603

Query: I would be grateful if you could share the reported fluorescence slope for O=C(Nc1ncnc2sc3c(c12)CCCCC3)c1ccco1 .
Reply: 0.0064

Query: I would be grateful if you could share the reported fluorescence slope for CN1CC[n+]2cnc3ccccc3c21 .
Reply: 0.00403

Query: I would be grateful if you could share the reported fluorescence slope for CCOC(=O)CCCn1nc(C)n2c(cc3sccc32)c1=O .
Reply: 0.00716

Query: I would be grateful if you could share the reported fluorescence slope for Cc1cc(C)c2c(n1)sc1c(N3CCOCC3)ncnc12 .
Reply: 0.00639

Query: I would be grateful if you could share the reported fluorescence slope for COc1ccc(N(CC(=O)N2c3ccccc3CC2C)S(=O)(=O)c2c(C)noc2C)cc1 (stereo unspecified) .
Reply: 0.00594

Query: I would be grateful if you could share the reported fluorescence slope for Cn1c(=O)c(C(=S)NC(=O)C2CC2)c(N)n(Cc2ccccc2)c1=O .
Reply: 0.00619

Query: I would be grateful if you could share the reported fluorescence slope for CC(C)(C)NC(=O)C(c1ccco1)N(C(=O)Cn1nnc(-c2ccc(F)cc2)n1)c1ccccc1 (stereo unspecified) .
Reply: 0.00525

Query: I would be grateful if you could share the reported fluorescence slope for O=C(O)c1ccc(-n2nnnc2Oc2ccccc2C(=O)N2CCOCC2)cc1 .
Reply: 0.0048
